Hi there, I'd appreciate the recorded Ratio for every entry that follows.
biological target: Opioid receptors; mu & delta (Homo sapiens) (UniProt P41143+P35372); test: Ratio of binding affinity of compound to mu receptor compared to that of delta receptor (Mu/Delta); type: protein assay
Sequence (P35372 whole entry, looked up): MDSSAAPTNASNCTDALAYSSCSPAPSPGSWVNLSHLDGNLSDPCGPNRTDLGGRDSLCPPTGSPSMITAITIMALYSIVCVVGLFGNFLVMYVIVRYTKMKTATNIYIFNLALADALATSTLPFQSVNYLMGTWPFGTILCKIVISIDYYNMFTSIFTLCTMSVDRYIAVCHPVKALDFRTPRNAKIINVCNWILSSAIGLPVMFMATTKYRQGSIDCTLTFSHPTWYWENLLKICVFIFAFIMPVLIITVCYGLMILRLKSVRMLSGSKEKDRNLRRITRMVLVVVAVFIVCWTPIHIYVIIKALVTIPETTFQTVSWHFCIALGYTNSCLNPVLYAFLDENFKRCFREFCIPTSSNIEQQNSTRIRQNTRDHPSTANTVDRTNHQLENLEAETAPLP
Sequence (P41143 whole entry, looked up): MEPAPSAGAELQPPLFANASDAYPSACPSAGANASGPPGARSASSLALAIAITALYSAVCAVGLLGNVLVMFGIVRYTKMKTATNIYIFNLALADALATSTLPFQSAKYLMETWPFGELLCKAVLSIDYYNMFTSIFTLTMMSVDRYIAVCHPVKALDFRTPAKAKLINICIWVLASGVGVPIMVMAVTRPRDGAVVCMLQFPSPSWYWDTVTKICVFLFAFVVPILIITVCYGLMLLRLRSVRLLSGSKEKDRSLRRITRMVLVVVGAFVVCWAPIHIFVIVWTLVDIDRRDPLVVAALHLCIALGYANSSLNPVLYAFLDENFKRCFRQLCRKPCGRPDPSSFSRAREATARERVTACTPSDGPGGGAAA

compound: Cc1cc(O)cc(C)c1CC(N)C(=O)N1Cc2cc(-c3ccsc3)ccc2C[C@H]1C(=O)O (stereo partly drawn)
observedProperty: Ratio
result: 10.5
--
compound: COc1ccc2c(c1)CN(C(=O)[C@@H](N)Cc1c(C)cc(O)cc1C)[C@H](C(=O)O)C2
observedProperty: Ratio
result: 237

For every item below, please supply its Ratio.
1. COc1ccc(-c2cc3c(cc2OC)CN(C(=O)C(N)Cc2c(C)cc(O)cc2C)[C@H](C(=O)O)C3)cc1 (stereo partly drawn)
2. Cc1cc(O)cc(C)c1CC(N)C(=O)N1Cc2cc(O)ccc2C[C@H]1C(=O)O (stereo partly drawn)
3. COc1ccc(-c2ccc3c(c2)CN(C(=O)C(N)Cc2c(C)cc(O)cc2C)[C@H](C(=O)O)C3)cc1 (stereo partly drawn)
4. Cc1cc(O)cc(C)c1C[C@H](N)C(=O)N1Cc2cc(-c3ccc(F)cc3)ccc2C[C@H]1C(=O)O
5. Cc1cc(O)cc(C)c1C[C@H](N)C(=O)N1Cc2cc(-c3ccccc3)ccc2C[C@H]1C(=O)O
6. COc1ccc(-c2ccc3c(c2)CN(C(=O)[C@@H](N)Cc2c(C)cc(O)cc2C)[C@H](C(=O)O)C3)cc1

-- reply
3.1
9.2
546
155
48.1
211

---

target: Delta-type opioid receptor (Homo sapiens); experiment: Compound was evaluated for binding affinity towards Opioid receptor delta 1 by displacing 125 I-deltorphin II
For each of the compounds below, state its pIC50.
Give bare numbers, as −log10 of the molar value.

Example entries and their recorded answers appear below.
compound: COc1cc2c(cc1-c1ccccc1)C[C@@H](C(=O)O)N(C(=O)C(N)Cc1c(C)cc(O)cc1C)C2 (some centres undefined)
quantitativeReadout: 5.60

compound: COc1c(Br)cc2c(c1Br)CN(C(=O)[C@H](N)Cc1c(C)cc(O)cc1C)[C@H](C(=O)O)C2
quantitativeReadout: 6.24

# evaluate next
// pIC50 lookup, compound = Cc1cc(O)cc(C)c1C[C@H](N)C(=O)N1Cc2cc(-c3ccccc3)ccc2C[C@H]1C(=O)O , result: 7.88

---

biological target: Delta-type opioid receptor (Homo sapiens); assay: Effective concentration for agonistic activity towards delta opioid receptor was determined by [35S]GTP-gamma-S functional assay
observedProperty: EC50 (nM)
One number for each entry, in nM.

For this compound ( COc1c(Br)cc2c(c1Br)CN(C(=O)[C@@H](N)Cc1c(C)cc(O)cc1C)[C@H](C(=O)O)C2 ), measured EC50 is 28

---

Non-standard residues stand in square brackets, D forms with d. Residues, ends and D or L forms follow the SMILES beside them. Dmt = Cc1cc(O)cc(C)c1C[C@H](N)C(=O)O; Tic = O=C(O)[C@@H]1Cc2ccccc2CN1
Endpoint: log10 IC50. System: Mu-type opioid receptor (Homo sapiens, UniProt P35372). Items follow.
Please be aware that the numbers have been log10-transformed from IC50 in nM.

Please review the following examples before continuing.
compound: COc1c(Br)cc2c(c1Br)CN(C(=O)[C@H](N)Cc1c(C)cc(O)cc1C)[C@H](C(=O)O)C2
log10 IC50: 3.92
//
compound: COc1ccc2c(c1)CN(C(=O)[C@@H](N)Cc1c(C)cc(O)cc1C)[C@H](C(=O)O)C2
log10 IC50: 3.46
//
compound: Cc1cc(O)cc(C)c1C[C@H](N)C(=O)N1Cc2cc(-c3ccc(F)cc3)ccc2C[C@H]1C(=O)O
log10 IC50: 2.77
//
compound: Cc1cc(O)cc(C)c1C[C@H](N)C(=O)N1Cc2ccccc2C[C@H]1C(=O)O (H-[Dmt]-[Tic]-OH)
log10 IC50: 2.95
//
compound: COc1ccc(-c2ccc3c(c2)CN(C(=O)[C@@H](N)Cc2c(C)cc(O)cc2C)[C@H](C(=O)O)C3)cc1
log10 IC50: 3.06
//
compound: Cc1cc(O)cc(C)c1C[C@@H](N)C(=O)N1Cc2cc(-c3ccccc3)ccc2C[C@H]1C(=O)O
log10 IC50: 3.29
//
compound: Cc1cc(O)cc(C)c1C[C@H](N)C(=O)N1Cc2cc(-c3ccccc3)ccc2C[C@H]1C(=O)O
log10 IC50: 2.80
//
compound: Cc1cc(O)cc(C)c1CC(N)C(=O)N1Cc2cc(O)ccc2C[C@H]1C(=O)O (stereo partly drawn)
log10 IC50: 3.33

For every listed record, write down its log10 IC50.
1. Cc1cc(O)cc(C)c1CC(N)C(=O)N1Cc2cc(-c3ccsc3)ccc2C[C@H]1C(=O)O (stereo partly drawn)
2. COc1cc2c(cc1-c1ccc(F)cc1)C[C@@H](C(=O)O)N(C(=O)C(N)Cc1c(C)cc(O)cc1C)C2 (stereo partly drawn)
3. Cc1cc(O)cc(C)c1C[C@@H](N)C(=O)N1Cc2c(cc(Br)c(O)c2Br)C[C@H]1C(=O)O
4. COc1ccc(-c2cc3c(cc2OC)CN(C(=O)C(N)Cc2c(C)cc(O)cc2C)[C@H](C(=O)O)C3)cc1 (stereo partly drawn)
5. COc1ccc2c(c1)CN(C(=O)C(N)Cc1c(C)cc(O)cc1C)[C@H](C(=O)O)C2 (stereo partly drawn)

-- reply
2.15
3.86
3.91
3.67
3.36

---

molecular target: Opioid receptors; mu & delta (Homo sapiens) (UniProt P41143+P35372); assay: Ratio of binding affinity of compound to mu receptor compared to that of delta receptor (Mu/Delta); format: protein assay
observedProperty: Ratio
One number for each entry.

compound: COc1ccc2c(c1)CN(C(=O)C(N)Cc1c(C)cc(O)cc1C)[C@H](C(=O)O)C2 (stereo partly drawn)
Ratio: 211

Below are some compounds; for each one, tell me its Ratio.
1. COc1cc2c(cc1-c1ccc(F)cc1)C[C@@H](C(=O)O)N(C(=O)C(N)Cc1c(C)cc(O)cc1C)C2 (stereo partly drawn)
2. Cc1cc(O)cc(C)c1C[C@@H](N)C(=O)N1Cc2cc(-c3ccccc3)ccc2C[C@H]1C(=O)O

-- reply
[6.2, 15.9]

---

biological target: Opioid receptors; mu & delta (Homo sapiens) (UniProt P41143+P35372); test: Ratio of binding affinity of compound to mu receptor compared to that of delta receptor (Mu/Delta); assay type: protein assay
Non-standard residues stand in square brackets, D forms with d. Residues, ends and D or L forms follow the SMILES beside them. Dmt = Cc1cc(O)cc(C)c1C[C@H](N)C(=O)O; Tic = O=C(O)[C@@H]1Cc2ccccc2CN1
observedProperty: Ratio
Answers are plain numbers.

// below: answered compounds
compound: Cc1cc(O)cc(C)c1C[C@H](N)C(=O)N1Cc2ccccc2C[C@H]1C(=O)O (H-[Dmt]-[Tic]-OH)
tgt: Opioid receptors; mu & delta (Homo sapiens) (UniProt P41143+P35372)
quantitativeReadout: 558
--
compound: COc1c(Br)cc2c(c1Br)CN(C(=O)[C@H](N)Cc1c(C)cc(O)cc1C)[C@H](C(=O)O)C2
tgt: Opioid receptors; mu & delta (Homo sapiens) (UniProt P41143+P35372)
quantitativeReadout: 14.4
--
compound: COc1c(Br)cc2c(c1Br)CN(C(=O)[C@@H](N)Cc1c(C)cc(O)cc1C)[C@H](C(=O)O)C2
tgt: Opioid receptors; mu & delta (Homo sapiens) (UniProt P41143+P35372)
quantitativeReadout: 505

API: the following record is the query input.
Kindly note the recorded Ratio for Cc1cc(O)cc(C)c1C[C@H](N)C(=O)N1Cc2c(cc(Br)c(O)c2Br)C[C@H]1C(=O)O , which is 1.1

---

biological target: Delta-type opioid receptor (Homo sapiens, UniProt P41143); experiment: Compound was evaluated for binding affinity towards Opioid receptor delta 1 by displacing 125 I-deltorphin II
What IC50 was measured for each of the following?
One number for each entry, in nM.

molecule: COc1ccc2c(c1)CN(C(=O)C(N)Cc1c(C)cc(O)cc1C)[C@H](C(=O)O)C2 (some centres not stated)
tgt: Delta-type opioid receptor (Homo sapiens, UniProt P41143)
observedProperty: IC50
quantitativeReadout: 10.9

Provide IC50 values for the following items, in order.
1. Cc1cc(O)cc(C)c1C[C@@H](N)C(=O)N1Cc2cc(-c3ccc(F)cc3)ccc2C[C@H]1C(=O)O
2. Cc1cc(O)cc(C)c1C[C@H](N)C(=O)N1Cc2c(cc(Br)c(O)c2Br)C[C@H]1C(=O)O
3. Cc1cc(O)cc(C)c1CC(N)C(=O)N1Cc2cc(-c3ccsc3)ccc2C[C@H]1C(=O)O (some centres not stated)
4. COc1ccc(-c2ccc3c(c2)CN(C(=O)[C@@H](N)Cc2c(C)cc(O)cc2C)[C@H](C(=O)O)C3)cc1
5. COc1ccc2c(c1)CN(C(=O)[C@@H](N)Cc1c(C)cc(O)cc1C)[C@H](C(=O)O)C2
6. Cc1cc(O)cc(C)c1CC(N)C(=O)N1Cc2cc(-c3cc4ccccc4o3)ccc2C[C@H]1C(=O)O (some centres not stated)

-- reply
1: 81.7; 2: 1080; 3: 13.5; 4: 5.8; 5: 12.1; 6: 52.7

Data origin: ChEMBL document CHEMBL1132761
